Assay Notes: JHH-DIPG-1 glioma cell viability, MIPE5.0 library, CellTiter-Glo luminescence, qHTS (AID 1347067);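 also: cells exposed to compound for 48 hours before readout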
Settings: JHH-DIPG-1 glioma viability, CellTiter-Glo ATP luminescence
Results filed as inconclusive are left out. Calls of active or inactive are those of the source. The limit is not given here; nearly all actives have AC50 up to about 26 µM.
Outcomes you can answer with include only these: yes = active, no = inactive

Exam item: Recorded test outcome, item COCCOc1cnc2ccn([C@H](C)c3nnc4c(F)cc(-c5cnn(C)c5)cn34)c(=O)c2c1
Marked response: no

Exam item: Please indicate how the test categorized Cc1ccc(S(=O)(=O)Nc2cc(C(F)(F)F)ccc2C(=O)Nc2nc(-c3ccccc3)cs2)cc1 .
Marked response: yes

Exam item: Which outcome was assigned to Cc1ccc(NC(=O)NCc2ccc3c(c2)CN(C2CCC(=O)NC2=O)C3=O)cc1Cl (stereo not drawn) in this test?
Marked response: yes

Exam item: Entry COc1cc(C(=O)O)ccc1NC(=O)[C@@H]1N[C@@H](CC(C)(C)C)[C@](C#N)(c2ccc(Cl)cc2F)[C@H]1c1cccc(Cl)c1F : call = ?
Marked response: yes

Exam item: Can you look up the reported call for CO[C@H]1/C=C\C=C(\C)C(=O)NC2=CC(=O)C(NCCN(C)C)=C(C[C@@H](C)C[C@H](OC)[C@H](O)[C@@H](C)/C=C(/C)[C@@H]1OC(N)=O)C2=O for me?
Marked response: yes

Exam item: So what was the verdict on Nc1cc(C(F)(F)F)c(-c2cc(N3CCOCC3)nc(N3CCOCC3)n2)cn1 in this test?
Marked response: yes

Exam item: Please share the test call associated with CCCC(CCC)C(=O)Nc1ccn([C@@H]2O[C@H](CO)[C@@H](O)C2(F)F)c(=O)n1 .
Marked response: no

Exam item: Entry CC(C)(c1ccc(OCC(O)CO)cc1)c1ccc(OCC(O)CCl)cc1 (stereo not drawn) : call = ?
Marked response: no

----------
Assay Notes: JHH-DIPG-1 glioma cell viability, MIPE5.0 library, CellTiter-Glo luminescence, qHTS (AID 1347067);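 also: cells exposed to compound for 48 hours before readout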
Settings: JHH-DIPG-1 glioma viability, CellTiter-Glo ATP luminescence
Records with an inconclusive call do not appear. Calls of active or inactive are those of the source. Cut-off not given; nearly all actives show AC50 up to about 26 µM.
Permitted responses: active, inactive

Exam item: Hi, sorry to bother you, what did the test record for C=CC(=O)Nc1cccc(Sc2nc(Nc3ccc(N4CCN(C)CC4)cc3)ncc2Cl)c1 ?
Marked response: active

Exam item: Per the assay record, what outcome was assigned to C[C@@H](O)[C@@H]1NC(=O)[C@H](CCCCN)NC(=O)[C@@H](Cc2c[nH]c3ccccc23)NC(=O)[C@H](Cc2ccccc2)NC(=O)[C@@H](NC(=O)[C@H](N)Cc2ccccc2)CSSC[C@@H](C(=O)N[C@H](CO)[C@@H](C)O)NC1=O ?
Marked response: inactive

Exam item: Per the assay record, what outcome was assigned to Cc1c(C(=O)Nc2ccc(N3C[C@@H](C)O[C@@H](C)C3)nc2)cccc1-c1ccc(OC(F)(F)F)cc1 ?
Marked response: active

----------
Assay Notes: CRL1545 cell growth, single agent and combined, cisplatin and BGB IC20 combos (AID 1671464);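 also: cells exposed to compound for 96 hours before readout; 0% = vehicle DMSO and 100% = high DMSO killing control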
Settings: CRL1545 osteosarcoma cells, single agent, at 0.05 µM, stronger effect = higher value
If the reported inhibition equals or exceeds -30%, assign rule met. If not, assign rule not met.

Exam item: Kindly determine if inhibition recorded for Cc1cn([C@@H]2O[C@H](CO)[C@@H](O)[C@@H]2F)c(=O)[nH]c1=O is above or exactly -30%.
Marked response: rule met

Exam item: Is reported inhibition greater than or equal to -30% here: CN(C)c1ccc(C(=O)NCCCCCCC(=O)NO)cc1
Marked response: rule met

Exam item: Textbook exercise: given the entry COc1ccc(C(=O)C2CCN(CC(=O)N(Cc3nc4c(c(=O)[nH]3)COCC4)CC3CC3)CC2)cc1 , state whether its inhibition is greater than or equal to -30%.
Marked response: rule not met

Exam item: Does the reported inhibition for O=C(O)CO.[NH2-].[NH2-].[Pt+2] fall at or above the -30% mark?
Marked response: rule met

Exam item: Say whether CC(=O)Nc1ccc(C(=O)Nc2ccccc2N)cc1 shows inhibition of -30% or more.
Marked response: rule met

Exam item: Tell me whether inhibition is at least -30% here: O=c1cc(N2CCOCC2)oc2c(-c3cccc4c3sc3ccccc34)cccc12
Marked response: rule met

Exam item: Quick check: does COc1cc2ncnc(-n3nc(-c4ccccn4)nc3N)c2cc1OC have inhibition greater than or equal to -30%?
Marked response: rule not met

Exam item: hey, is inhibition for this one >= -30%? CC(=O)Nc1nc(C)c(-c2ccc(Cl)c(S(=O)(=O)NCCO)c2)s1
Marked response: rule met

Exam item: Identify whether the reported inhibition of the following molecule is -30% or greater: O=c1[nH]c([C@@H]2CCCN2)nc2c1oc1ccc(Cl)cc12
Marked response: rule not met

Exam item: Check this molecule for inhibition at or above -30%: COc1cc(C=O)c([N+](=O)[O-])cc1OC
Marked response: rule met

----------
Assay Notes: RCMB18 cell growth, single agent and combined, cisplatin and BGB IC40 combos (AID 1671462);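 also: cells exposed to compound for four days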
Settings: RCMB18 medulloblastoma cells, single agent, at 5 µM, stronger effect = higher value
Property Label: inhibition
# output: numeric value plus its unit

Exam item: Item under review: C[C@]12CCCN1CC1=NNC(=O)c3cc(F)cc4[nH]c2c1c34 . Reported inhibition?
Marked response: -28.1%

Exam item: Tell me the measured inhibition of CCCCc1nc2cc(/C=C/C(=O)NO)ccc2n1CCN(CC)CC , please.
Marked response: 89.4%

Exam item: Please report the recorded inhibition for CN(C)CCN1C(=O)c2cccc3cc(N)cc(c23)C1=O .
Marked response: -32.9%

Exam item: Recorded inhibition for O=C(CCCCCCNC(=O)c1cnc(N(c2ccccc2)c2ccccc2Cl)nc1)NO , please?
Marked response: 31.8%

Exam item: Report inhibition for O=c1cc(N2CCOCC2)oc2c(-c3cccc4c3sc3ccccc34)cccc12 please.
Marked response: 0.048%

Exam item: I have this molecule here, C=C1[C@H](CO)[C@@H](O)C[C@@H]1n1cnc2c(=O)[nH]c(N)nc21 , and I need its recorded inhibition.
Marked response: -2.06%

Exam item: Give the measured inhibition of CN(C)Cc1c(C(=O)NCCOc2ccc(C(=O)NO)cc2)oc2ccccc12 .
Marked response: 92.2%

Exam item: Return reported inhibition; argument: NC1CCC(N[C@@H]2C[C@H]2c2ccccc2)CC1 (stereo partly specified)
Marked response: -32.3%

Exam item: Please give the measured inhibition for this molecule: CS(=O)(=O)c1ccc(-c2nnc(/C=C/c3nnc(-c4ccc(C#N)cc4)o3)n2-c2ccccc2Cl)nc1
Marked response: -0.278%

Exam item: Given the molecule CC(C)OC(=O)[C@H](C)N[P@](=O)(OC[C@H]1O[C@@H](n2ccc(=O)[nH]c2=O)[C@](C)(F)[C@@H]1O)Oc1ccccc1 , what is its reported inhibition?
Marked response: -3.36%

Exam item: Using the record for CC(=O)Nc1ccc(C(=O)Nc2ccccc2N)cc1 , report its inhibition.
Marked response: 47.6%

Exam item: # get_value(readout='inhibition', item= O=C(COc1cccc2c(=O)[nH]ccc12)c1ccccc1 )
Marked response: -18.5%

Exam item: For the molecule shown here, Cc1cnc(CNC(=O)c2c(=O)c3ccc(N4CCCN(C)CC4)nc3n3c2sc2ccccc23)cn1 , give the reported inhibition.
Marked response: 101%

Exam item: Look up inhibition: CC(=O)[C@]1(N)Cc2c(O)c3c(c(O)c2[C@@H](O[C@H]2C[C@H](O)[C@H](O)CO2)C1)C(=O)c1ccccc1C3=O
Marked response: 89.9%

Exam item: Tell me the measured inhibition of Nc1nc(OCc2cc(Br)cs2)c2[nH]cnc2n1 , please.
Marked response: -0.712%

Exam item: // lookup inhibition for O=C(/C=C/c1ccc(CN(CCO)CCc2c[nH]c3ccccc23)cc1)NO
Marked response: 96.9%

Exam item: Find the recorded inhibition belonging to CC(=O)Nc1nc(C)c(-c2ccc(Cl)c(S(=O)(=O)NCCO)c2)s1 and report it.
Marked response: 15.1%

Exam item: Record request: inhibition value, item COc1ccc(C(=O)CC2(O)C(=O)Nc3c(Cl)ccc(Cl)c32)cc1 (stereo unspecified)
Marked response: 24.9%

Exam item: // inhibition lookup, key: O=C(O)CO.[NH2-].[NH2-].[Pt+2]
Marked response: -8.12%

Exam item: Param item = Cc1ccc2nc(NCCN)c3ncc(C)n3c2c1 ; retrieve measured inhibition.
Marked response: 33.3%

Exam item: Could you tell me which inhibition is on file for O=c1[nH]cnc2ccccc12 ?
Marked response: -13.2%

----------
Can you tell me z-score for the items I'm about to list?
Assay Notes: galactose survival enhancers in mitochondrial complex I cybrids – cell-based, galactose medium, ATP luminescence, primary screen (AID 1645843);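 also: positive z means more ATP and so rescue of galactose-driven cybrid death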
Settings: complex I mutant cybrid cells, 72 h, stronger effect = higher value
Calls of active or inactive are those of the source.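 The calls were made as follows: active = z-score of at least 1.8 in each of two replicates, scored against plate mean and spread of sample wells; inactive = the rest.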

Exam item: Give the measured z-score of CC(C)Oc1cccc(-n2c(CCc3c[nH]c4ccc(Br)cc34)nc3ccccc3c2=O)c1 .
Marked response: -1.18 (inactive)

Exam item: Item CCCCC[C@H](O)/C=C/[C@@H]1[C@@H](C/C=C\CCCC(=O)O)[C@@H](O)C[C@H]1O has what recorded z-score?
Marked response: 0.625 (inactive)

Exam item: // lookup z-score for COc1ccc2[nH]c(-c3ccccc3)c(CCNC(C)=O)c2c1
Marked response: -0.185 (inactive)

Exam item: Sample O=C(O)c1cc(Oc2ccc([N+](=O)[O-])cc2)cc(Oc2ccc([N+](=O)[O-])cc2)c1 — what was its z-score?
Marked response: 1.39 (inactive)

Exam item: I would be grateful if you could share the reported z-score for Nc1[nH]nc2nnc(-c3c(-c4ccccc4)nn4ccccc34)cc12 .
Marked response: 1.04 (inactive)

Exam item: Requested read-out: z-score. Entry: Nc1[nH]nc2nc3ccccc3nc12
Marked response: -0.17 (inactive)

Exam item: Sample N=C(N)S/C=C\C(=O)O — what was its z-score?
Marked response: -0.28 (inactive)

Exam item: Would you mind telling me what z-score value was observed for CCN(CC)CCCCCCCCOC(=O)c1cc(OC)c(OC)c(OC)c1 ?
Marked response: -0.285 (inactive)

Exam item: GET /values?readout=z-score&item= O=C1NC(O)=NC1(c1ccccc1)c1ccccc1
Marked response: 0.26 (inactive)

Exam item: Fill in: z-score of Cc1ccc(CC2(O)CCN(CCOc3ccc(O)cc3)CC2)cc1 is ___
Marked response: -0.49 (inactive)

Exam item: Give its z-score value. Item: N=C(N)SCCc1ccc(OCc2ccc([N+](=O)[O-])cc2)cc1
Marked response: -0.76 (inactive)
